All figures here come from patent US8772323B2.

tested target: human GPR119 (Homo sapiens (Human), UniProt Q8TDV5)
Sequence (Q8TDV5 whole entry): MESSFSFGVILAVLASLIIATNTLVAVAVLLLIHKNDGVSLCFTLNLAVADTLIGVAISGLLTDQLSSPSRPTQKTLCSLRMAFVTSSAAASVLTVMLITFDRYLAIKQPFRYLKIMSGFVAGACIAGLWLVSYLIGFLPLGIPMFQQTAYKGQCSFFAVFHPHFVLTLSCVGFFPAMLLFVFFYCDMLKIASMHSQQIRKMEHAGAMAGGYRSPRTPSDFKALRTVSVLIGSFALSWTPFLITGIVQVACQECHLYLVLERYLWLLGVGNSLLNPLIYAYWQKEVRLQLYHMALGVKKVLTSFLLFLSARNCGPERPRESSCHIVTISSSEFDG
test: AlphaScreen cAMP assay in Min-6/hGPR119 cells (GPR119 activation, intracellular cAMP)
assay context: MIN6 cells stably transfected with human GPR119; 45 minutes' incubation at RT; AlphaScreen cAMP Assay Kit
Procedure: The compounds of formula I according to the invention are GPR119 agonists. The effect of the compounds on the activation of GPR119 and on the stimulation of intracellular cAMP concentration is determined using the AlphaScreen cAMP Assay Kit (Cat. No. #6760625R) made by PerkinElmer. MIN6 cells [Miyazaki J et al. Endocrinology. 1990 July; 127(1):126-32] were stably transfected with an expression vector for human GPR119 cDNA (Acc. No. NP_848566). […]
Reported pEC50 values follow for various compounds
As a rule, pEC50 stands for the negative log10 of the concentration, concentration in M.

Here is how some compounds turned out for pEC50.
| compound | pEC50 |
| --- | --- |
| CC[C@@H]1CC(=O)NN=C1c1ccc2nc(-c3ccc(OC)cc3)oc2c1 | 7.10 |
| CCC1CC(=O)NN=C1c1ccc2nc(-c3ccc(OCCN4CCC(C)CC4)cc3)oc2c1 (centres unmarked) | 6.71 |

### Prompt Give reported pEC50 for CCC1CC(=O)NN=C1c1ccc2nc(-c3ccc(OC)cc3)oc2c1 (centres unmarked) (human GPR119 (Homo sapiens (Human), UniProt Q8TDV5))
### Response 6.92

### Prompt Give reported pEC50 for O=C1NN=C(C2CCc3nc(-c4ccccc4)oc3C2)C2CC12 (centres unmarked) (human GPR119 (Homo sapiens (Human), UniProt Q8TDV5))
### Response 6.09

### Prompt Give reported pEC50 for CCC1CC(=O)NN=C1c1ccc2nc(-c3cccc(OCCN(C)C(C)C)c3)oc2c1 (centres unmarked) (human GPR119 (Homo sapiens (Human), UniProt Q8TDV5))
### Response 5.62

### Prompt Give reported pEC50 for C[C@H]1CC(c2ccc3nc(-c4ccccc4)oc3c2)=NNC1=O (human GPR119 (Homo sapiens (Human), UniProt Q8TDV5))
### Response 6.10

### Prompt Give reported pEC50 for CCC1CC(=O)NN=C1c1ccc2nc(-c3ccc(OCc4nc(C(C)C)no4)cc3)oc2c1 (centres unmarked) (human GPR119 (Homo sapiens (Human), UniProt Q8TDV5))
### Response 6.65

### Prompt Give reported pEC50 for O=C1NN=C(c2ccc3nc(-c4ccc(OCCN5CCOCC5)cc4)oc3c2)C2CC12 (centres unmarked) (human GPR119 (Homo sapiens (Human), UniProt Q8TDV5))
### Response 6.30

###

tested target: human GPR119 (Homo sapiens (Human))
test: AlphaScreen cAMP assay in Min-6/hGPR119 cells (GPR119 activation, intracellular cAMP)
assay context: MIN6 cells stably transfected with human GPR119; 45 minutes' incubation at RT; AlphaScreen cAMP Assay Kit
Reported pEC50 values follow for various compounds
As a rule, pEC50 stands for the negative log10 of the concentration, concentration in M.

Here is how some compounds turned out for pEC50.
| compound | pEC50 |
| --- | --- |
| CC[C@H]1CC(=O)NN=C1c1ccc2nc(-c3ccc(OC(C)C)cc3)oc2c1 [Example 192] | 5.22 |
| CCC1CC(=O)NN=C1c1ccc2nc(-c3ccc(OCc4ccsc4)cc3)oc2c1 (centres unmarked) [Example 48] | 6.46 |

### Prompt Give the reported pEC50 for this compound. CCC1CC(=O)NN=C1c1ccc2nc(-c3ccc(OCCN4CCCC4=O)cc3)oc2c1 (centres unmarked) [Example 167]
### Response 5.99

### Prompt Give the reported pEC50 for this compound. CC[C@@H]1C(c2ccc3nc(-c4ccccc4)oc3c2)=NNC(=O)[C@H]1C (relative stereo) [Example 145]
### Response 6.68
